Recorded chromatographic logP by entry
experiment: logP by HPLC (EEC Directive 79/831 Annex V. A8, gradient method); assay type: physicochemical; conditions: gradient of acetonitrile/0.1% aqueous phosphoric acid; HPLC, gradient method, acetonitrile/0.1% aqueous phosphoric acid; Table 1

Some molecules with known chromatographic logP results, for comparison:
CC(=O)c1ccc(OC2=NS(=O)(=O)CS2)cc1 [Example 21] : 1.69
O=S1(=O)CSC(Oc2ccccc2Br)=N1 [Example 108] : 2.3
C/C(=N/OC(C)(C)C)c1cccc(OC2=NS(=O)(=O)CS2)c1 [Example 28] : 3.94
CO/N=C(/C)c1ccc(OC2=NS(=O)(=O)CS2)cc1 [Example 20] : 2.62

Please find the next molecule below.
Given O=S1(=O)CSC(Oc2ccccc2F)=N1 [Example 110] , state its recorded chromatographic logP.
2.02

----------
assay: logP by HPLC (EEC Directive 79/831 Annex V. A8, gradient method); format: physicochemical; conditions: Table 4, starting materials of formula (IV)
Recorded chromatographic logP by entry

CSC1=NS(=O)(=O)C(C(C)C)S1 (stereo not shown) [IV-4] : 2.8

Given CSC1=NS(=O)(=O)CC(c2ccccc2)S1 (stereo not shown) [IV-6] , state its recorded chromatographic logP.
2.54

Next: CSC1=NS(=O)(=O)C(C)S1 (stereo not shown) [IV-3]
1.38

Next: CSC1=NS(=O)(=O)CC(C)(c2ccccc2)S1 (stereo not shown) [IV-5]
2.65

----------
experiment: logP by HPLC (EEC Directive 79/831 Annex V. A8, gradient method); type: physicochemical; details: gradient of acetonitrile/0.1% aqueous phosphoric acid; HPLC, gradient method, acetonitrile/0.1% aqueous phosphoric acid; Table 1
Recorded chromatographic logP by entry
Respond using a number only.

CC(C)(CCl)C(=O)Nc1ccc(OC2=NS(=O)(=O)CS2)c(Cl)c1Cl : 2.98
CC(=O)c1cccc(OC2=NS(=O)(=O)CS2)c1 : 1.73
O=S1(=O)CSC(Oc2cccc(Br)c2)=N1 : 2.47
Cc1ccc(Cl)c(OC2=NS(=O)(=O)CS2)c1 : 2.62

Please find the next compound below.
Given `O=S1(=O)CSC(Oc2ccccc2OC(F)(F)F)=N1` , state its recorded chromatographic logP.
2.63

----------
Recorded logP by entry
test: logP by HPLC (EEC Directive 79/831 Annex V. A8, gradient method); assay type: physicochemical; conditions: HPLC, gradient method, acetonitrile/0.1% aqueous phosphoric acid; Table 1
Respond using a number only.

O=S1(=O)CSC(Oc2ccc(Br)cc2)=N1 [Example 122] : 2.52
CON=C(C)c1ccc(OC2=NS(=O)(=O)CS2)c(C)c1 [Example 16] : 2.88
COc1ccccc1OC1=NS(=O)(=O)CS1 [Example 136] : 2.02
O=C(C=Cc1ccccc1)c1ccc(OC2=NS(=O)(=O)CS2)cc1 [Example 67] : 3.06
Cc1cc(OC2=NS(=O)(=O)CS2)ccc1SC(F)(F)F [Example 52] : 3.39

Please find the next compound below.
Given COc1ccc(C(C)=O)c(OC2=NS(=O)(=O)CS2)c1 [Example 75] , state its recorded logP.
1.83

----------
assay: logP by HPLC (EEC Directive 79/831 Annex V. A8, gradient method); assay type: physicochemical; conditions: Table 2
chromatographic logP under 3 gets satisfied, anything at or over 3 gets not satisfied.

Just wondering, is chromatographic logP of CC1(C)Cc2cccc(OC3=NS(=O)(=O)CS3)c2O1 [Example 158] below 3?
satisfied
